- TGT: Glucagon-like peptide 1 receptor (Homo sapiens)
- METHOD SUMMARY: qHTS of GLP-1 Receptor Inverse Agonists (Inhibition Mode); also: nearly all actives have a fitted effect of over 55% in size
- EXPERIMENTAL CONDITIONS: HEK293 GLP-1R CRE-luciferase, luminescence, 24 h, GLP-1R form is constitutively active; series mostly up to 38.3 µM
- Description: The overall goal of this project was to develop a novel assay for discovering small molecule ligands for class B1 G protein-coupled receptors (GPCRs). […] The assay was developed using a cell-based functional readout. […] Six ul of cell suspension (200 cells/uL in DMEM + 10% Nu serum + 1% pen-strep) is dispensed in a white solid 1536-well plate. […] A luminescence read is obtained on the PerkinElmer Viewlux after 12 min incubation at room temperature.
Out of some 410,000 compounds screened, about 6,400 (1.6%) were called active. Roughly 20% stayed inconclusive and do not appear here. Calls follow the shape of the dose curve; as a rule, active = well fitted inhibition curve with a large enough effect; inconclusive = small, poorly fitted or top-dose-only effect; inactive = no such curve, though single readings can be large or run the other way. This excerpt belongs to a sample that is enriched for actives.
Your answer must be one of the following: active, inactive

> print(dat)
                                   molecule  assigned.category
1  CCCNC(=O)c1cc2c(c(-c3cccc(-c4ccc(C#N)cc4)c3)n1)[C@@H](CCO)N(C(=O)CC)C2           inactive
2  OC[C@@H]1CN(Cc2cccs2)C[C@H](n2cnc3c(NC4CCCC4)ncnc32)O1           inactive
3  O=C(CSc1ncn[nH]1)Nc1nc2c(F)c(F)c(F)cc2s1           inactive

Q) Test call for this molecule, please: CCCCNC(=O)OC1CC2CC1[C@H]1CCCCN1C2=O (stereo partly drawn)
A) inactive

Q) Test call for this molecule, please: Cc1ccc2c(c1)C1CN(C)CCC1N2S(=O)(=O)c1ccc(Oc2ccc([N+](=O)[O-])cc2)cc1 (stereo not drawn)
A) active

Q) Test call for this molecule, please: Cc1cccc(C)c1-n1nnnc1C1(C)CCC(=O)N1CCOc1ccccc1 (stereo not drawn)
A) inactive

Q) Test call for this molecule, please: `CN1OC[C@@H]2CN(C(=O)c3ccc(-c4ccccc4)cc3)[C@H](c3ccc(-c4cccc(F)c4)cc3)C[C@@H]21`
A) inactive

Q) Test call for this molecule, please: C#CC(C)(CC)NC(=O)Cn1nnc(-c2ccc(OCc3c(F)cccc3Cl)cc2)n1 (stereo not drawn)
A) active
